System tested: catalytic domain of human Bub1 (amino acids 704-1085) (Homo sapiens)
Construct: catalytic domain of human Bub1 (amino acids 704-1085); His6 (N); made in house; host or cells: Hi5 insect cells
Method notes: Bub1 kinase assay (TR-FRET)
Assay type: biochemical
Condition label: Biological Assay 1: Bub1 kinase assay median IC50, 10 μM ATP
Readout name: IC50 (nM)

Record excerpt, results attached:
- Cc1nccc(Nc2nc(-c3nn(Cc4c(F)cc(OCCO)cc4F)c4ccccc34)nc3c2CC(C)(C)C3)n1: 81
- OCCOc1cc(F)c(Cn2nc(-c3nc4c(c(Nc5ccnnc5)n3)CCC4)c3ccccc32)c(F)c1: 18
- CCOc1cc(F)c(Cn2nc(-c3ncc(CCCO)c(Nc4ccncc4)n3)c3ccccc32)c(F)c1: 5.3
- CCOc1cc(F)c(Cn2nc(-c3ncc(OCC(=O)N4CC(F)(F)C4)c(Nc4ccncc4)n3)c3ccccc32)c(F)c1 [Example 3-5-1, reference compound]: 8

A = CCOc1cc(F)c(Cn2nc(-c3nc(CN4CCOCC4)cc(Nc4cc(C)nc(C)n4)n3)c3ccccc32)c(F)c1
B = CCOc1cc(F)c(Cn2nc(-c3nc(Nc4ccnc(C)n4)cc(-c4ccn(C)n4)n3)c3ccccc32)c(F)c1
Enquiry: Which is greater in IC50, the first item A or the second item B ? Output the label that corresponds to your choice.
Return: A
(A: 320 nM, B: 30 nM)

====

System tested: catalytic domain of human Bub1 (amino acids 704-1085) (Homo sapiens, UniProt O43683)
Construct: catalytic domain of human Bub1 (amino acids 704-1085); His6 (N); made in house; host or cells: Hi5 insect cells
Sequence (O43683 704-1085): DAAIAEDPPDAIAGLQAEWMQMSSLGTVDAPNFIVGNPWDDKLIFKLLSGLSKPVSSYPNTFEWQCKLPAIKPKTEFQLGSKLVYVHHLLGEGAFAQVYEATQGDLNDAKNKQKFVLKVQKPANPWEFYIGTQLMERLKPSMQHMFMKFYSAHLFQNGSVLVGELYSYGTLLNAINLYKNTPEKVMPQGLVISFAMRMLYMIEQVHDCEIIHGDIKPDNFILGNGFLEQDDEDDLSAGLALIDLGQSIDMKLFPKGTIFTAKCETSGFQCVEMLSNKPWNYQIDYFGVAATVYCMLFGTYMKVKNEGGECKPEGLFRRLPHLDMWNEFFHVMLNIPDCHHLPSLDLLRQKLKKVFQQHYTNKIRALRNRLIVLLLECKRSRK
Method notes: Bub1 kinase assay (TR-FRET)
Assay type: biochemical
Condition label: Biological Assay 1: Bub1 kinase assay median IC50, 10 μM ATP
pIC50: −log10 of the molar value.
Readout name: pIC50

Record excerpt, results attached:
• CCOc1cc(F)c(Cn2nc(-c3ncc(CCCN4CCOCC4)c(Nc4ccncc4C(F)(F)F)n3)c3ccccc32)c(F)c1 = 6.89
• COCCOc1cc(F)c(Cn2nc(-c3nc4c(c(Nc5ccncc5Cl)n3)CCC4)c3ccccc32)c(F)c1 = 7.22
• CCOc1cc(F)c(Cn2nc(-c3ncc(C4CCN(CC(F)(F)F)CC4)c(Nc4ccncc4OC)n3)c3ccccc32)c(F)c1 = 7.15
• CCOc1cc(F)c(Cn2nc(-c3ncc(C4CCN(CC(F)(F)F)CC4)c(Nc4ccncn4)n3)c3ccccc32)c(F)c1 = 7.59
• CCOc1cc(F)c(Cn2nc(-c3nc(Nc4ccncn4)cc(-c4nccs4)n3)c3ccccc32)c(F)c1 = 7.59
• CCOc1cc(F)c(Cn2nc(-c3nc(COC)cc(Nc4ccncc4)n3)c3ccccc32)c(F)c1 = 8.28

1 = CCOc1cc(F)c(Cn2nc(-c3nc4c(c(Nc5ccncc5C)n3)COC4)c3ccccc32)c(F)c1
2 = COCCOc1cc(F)c(Cn2nc(-c3nc4c(c(Nc5cc(C)ncc5C)n3)CN(CC(F)(F)F)C4)c3ccccc32)c(F)c1
Enquiry: Could you tell me which of these two has the smaller pIC50 figure? First: 1 Second: 2 Output the label that corresponds to your choice.
Return: 1

P = CCOc1cc(F)c(Cn2nc(-c3ncc(CCNCC(F)(F)F)c(Nc4ccnc(NC(C)=O)c4)n3)c3ccccc32)c(F)c1
Q = Cc1nccc(Nc2nc(-c3nn(Cc4c(F)cc(OCCO)cc4F)c4ccccc34)nc(C)c2F)n1
Enquiry: Could you tell me which of these two has the smaller pIC50 figure? First: P Second: Q Output the label that corresponds to your choice.
Return: Q

I = CCOc1cc(F)c(Cn2nc(-c3ncc(CCN4CCCC(F)(F)C4)c(Nc4ccncc4)n3)c3ccccc32)c(F)c1
II = CCOc1cc(F)c(Cn2nc(-c3ncc(CC4CN(CC(F)(F)F)C4)c(Nc4ccnc(NC(C)=O)c4)n3)c3ccccc32)c(F)c1
Enquiry: Which is greater in pIC50, the first item I or the second item II ? Output the label that corresponds to your choice.
Return: I

a = CCOc1cc(F)c(Cn2nc(-c3nc(CC)cc(Nc4ccnc(NC(C)=O)c4)n3)c3ccccc32)c(F)c1
b = COCCOc1cc(F)c(Cn2nc(-c3nc4c(c(Nc5ccnc(NC(C)=O)c5)n3)CCC(C)(C)C4)c3ccccc32)c(F)c1
Enquiry: Which is greater in pIC50, the first item a or the second item b ? Output the label that corresponds to your choice.
Return: a
(a: 8.03, b: 7.68)

Measured values drawn from patent US20170275270A1 for this set.
